- Test system: SN12C renal
- assay-protocol: NCI tumour cell line growth inhibition, 48 h
Consider the following compounds; for each one, report its GI50.

Q: Under SN12C renal: GI50 value of CCN(CC)CCCNc1cc(OC)cc2nc3cc(Cl)ccc3nc12 ?
A: 1.09 µM

Q: Under SN12C renal: GI50 value of CCOCCCn1c2c(c3c(O)cccc31)C(=O)c1ccccc1-2 ?
A: 11.5 µM

Q: Under SN12C renal: GI50 value of CC1C(C)N(C(=O)CCl)c2ccccc2N1C(=O)CCl (stereo not given) ?
A: 0.793 µM

Q: Under SN12C renal: GI50 value of Cc1ccc(/C=N/Nc2nc(Nc3ccccc3)nc(-n3nc(C)cc3C)n2)cc1 ?
A: 3.11 µM

Q: Under SN12C renal: GI50 value of O=C([CH-]C(=O)c1ccccc1)c1ccccc1.[CH-]1CCCCC1.[CH-]1CCCCC1.[CH-]1CCCCC1.[Sn+4] ?
A: 4.35 µM
